B1: Ribonuclease, P00648 (parent)
chain: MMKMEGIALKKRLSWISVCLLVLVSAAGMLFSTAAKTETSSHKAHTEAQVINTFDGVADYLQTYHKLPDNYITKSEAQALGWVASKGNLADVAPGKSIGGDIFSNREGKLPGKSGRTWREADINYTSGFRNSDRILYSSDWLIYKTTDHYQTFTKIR

Variants of: B1
CONDITION_LABEL: Bacillus amyloliquefaciens; pH 6.3; 25 °C; Urea; Fluorescence; MES-NaOH 450 mM; reversible: yes; structure 1BNI; whole UniProt chain shown
# unfolding free energy values compiled below
EXPERIMENTAL_READOUT: unfolding free energy

> print(dat)
   variant.descriptor   experimental.readout      reading
1               I123V  unfolding free energy  32.8 kJ/mol
2               N131A  unfolding free energy  30.3 kJ/mol
3                N70A  unfolding free energy  27.7 kJ/mol
4                T53A  unfolding free energy  28.5 kJ/mol
5               I143V  unfolding free energy  32.6 kJ/mol
6               Y150F  unfolding free energy  36.1 kJ/mol
7               S138A  unfolding free energy  26.8 kJ/mol
8               L136V  unfolding free energy  34.9 kJ/mol
